Ref: paper PMC12064818

Target: FLuc-C-NLuc (firefly luciferase) (Photinus pyralis, UniProt P08659, form not given/L550V)
Sequence (P08659 2-550 L550V, form open): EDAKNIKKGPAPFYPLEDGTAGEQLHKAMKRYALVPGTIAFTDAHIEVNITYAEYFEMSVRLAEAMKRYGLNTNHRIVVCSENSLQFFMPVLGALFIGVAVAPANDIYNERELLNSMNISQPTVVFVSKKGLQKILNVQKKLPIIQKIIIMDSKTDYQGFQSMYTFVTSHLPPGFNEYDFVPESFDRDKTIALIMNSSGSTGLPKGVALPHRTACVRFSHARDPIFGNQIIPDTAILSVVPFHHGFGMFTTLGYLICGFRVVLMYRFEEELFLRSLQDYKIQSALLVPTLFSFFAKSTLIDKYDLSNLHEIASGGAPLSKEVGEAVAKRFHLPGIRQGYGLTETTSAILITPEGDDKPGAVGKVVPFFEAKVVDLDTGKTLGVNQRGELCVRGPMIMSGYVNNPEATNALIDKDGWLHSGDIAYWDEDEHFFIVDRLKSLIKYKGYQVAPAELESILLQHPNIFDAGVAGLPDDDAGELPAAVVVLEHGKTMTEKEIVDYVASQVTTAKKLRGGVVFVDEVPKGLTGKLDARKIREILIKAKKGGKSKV
Test: Firefly luciferase (FLuc) enzymatic luminescence assay, FLuc-C-NLuc
Assay type: biochemical
Design: key: % normalized; no enzyme control = 100% inhibition, DMSO = 0
Conditions: Log[Compound], M -8.30
Give Enz for every item shown.
One number for each entry.

Guide cases for Enz, answers given:
COc1ccc(NC(=O)C2CCN(C(=O)c3ncn4c3COC(c3ccccc3)C4)CC2)cc1Cl (centres unmarked) [NCGC00449919] ... 6.82
O=C(Nc1cccc(F)c1)C1CCN(C(=O)c2ncn3c2COC(c2ccccc2)C3)CC1 (centres unmarked) [NCGC00449914] ... -1.14
CC(NC(=O)C1CCN(C(=O)c2ncn3c2COC(c2ccc(F)cc2)C3)CC1)c1ccc(F)cc1 (centres unmarked) [NCGC00449825] ... 4.19
CC(CNC(=O)C1CCN(C(=O)c2ncn3c2COC(c2ccccc2)C3)CC1)c1ccccc1 (centres unmarked) [compound 00449795] ... 6.20

Next up:
stdin: Name the reported Enz value associated with the compound CC1CCC(NC(=O)C2CCN(C(=O)c3ncn4c3COC(c3ccc(Cl)cc3)C4)CC2)CC1 (centres unmarked) [NCGC00449845]
stdout: 5.03

* * *

Biological target: FLuc-C-NLuc (firefly luciferase) (Photinus pyralis, UniProt P08659, form not given/L550V)
Test: SDR assay, FLuc-C-NLuc
Conditions: Log[Compound], M -5.91; 10 mM ATP
readout: SDR+ATP

Guide cases for SDR+ATP, answers given:
CC1CCC(NC(=O)C2CCN(C(=O)c3ncn4c3COC(c3ccc(Cl)cc3)C4)CC2)CC1 (centres unmarked) ... 1.22
CC(CNC(=O)C1CCN(C(=O)c2ncn3c2COC(c2ccccc2)C3)CC1)c1ccccc1 (centres unmarked) ... 34.17
COc1ccc(NC(=O)C2CCN(C(=O)c3ncn4c3COC(c3ccccc3)C4)CC2)cc1Cl (centres unmarked) ... 50.80
O=C(Nc1cccc(F)c1)C1CCN(C(=O)c2ncn3c2COC(c2ccccc2)C3)CC1 (centres unmarked) ... 45.60

stdin: Name the reported SDR+ATP value associated with the molecule CC(NC(=O)C1CCN(C(=O)c2ncn3c2COC(c2ccc(F)cc2)C3)CC1)c1ccc(F)cc1 (centres unmarked)
stdout: 1.09

* * *

Molecular target: FLuc-C-HiBiT (firefly luciferase) (Photinus pyralis, UniProt P08659, form not given/L550V)
Assay: Firefly luciferase (FLuc) enzymatic luminescence assay, FLuc-C-HiBiT
Assay type: biochemical
Parameters: key: % normalized; no enzyme control = 100% inhibition, DMSO = 0
Settings: sheet Figure 1g (values as in Figure 1f); normalized activity; Log [Compound], M -7.82
One threshold, 5, splits the recorded FLuc Enzyme values: lower ones are TRUE, equal or higher ones are FALSE.

# count of solved cases: 4
CC1CCCN(c2ncnc3c2cnn3-c2ccccc2)C1 (centres unmarked) [compound 00081381] ... FALSE
O=C(O)c1cccc2c1CCN2C(=O)Nc1ccc(F)cc1 [compound 00432687] ... TRUE
CNC(=O)c1cccc2c1CCN2C(=O)Nc1ccc(C)cc1 [compound 00430160] ... TRUE
Fc1ccc(-c2cn3cc(Cc4ccccc4)sc3n2)cc1 [compound 00102110] ... TRUE

Field: next compound
stdin: Just wondering, is FLuc Enzyme of CC(CNC(=O)C1CCN(C(=O)c2ncn3c2COC(c2ccccc2)C3)CC1)c1ccccc1 (centres unmarked) [compound 00449795] below 5?
stdout: FALSE

* * *

Molecular target: FLuc-N-HiBiT (firefly luciferase) (Photinus pyralis, UniProt P08659, form not given/L550V)
Sequence (P08659 2-550 L550V, form open): as above
Experiment: SDR assay, FLuc-N-HiBiT
Conditions: SDR; substituted indoline (clade A'); + ATP
readout: % Activity (max response, + ATP)

Guide cases for % Activity (max response, + ATP), answers given:
Cc1cccc(NC(=O)N2CCc3c(C(=O)NC(C)(C)C)cccc32)c1 ... 30.08%
CCC(C)(C)NC(=O)c1cccc2c1CCN2C(=O)Nc1cccc(C)c1 ... 86.92%
Cc1cccc(NC(=O)N2CCc3c(C(=O)N4CCN(C)CC4)cccc32)c1 ... 120.00%

// batch mode: one % Activity (max response, + ATP) value per listed entry
1. CCC(=O)N1CCc2c(C(=O)O)cccc21
2. Cc1ccc(NC(=O)N2CCc3c(C(=O)NCCc4ccccn4)cccc32)cc1
3. CC(NC(=O)c1cccc2c1CCN2C(=O)Nc1ccccc1)c1cccnc1 (stereo not drawn)
4. O=C(O)c1cccc2c1CCN2C(=O)c1ccccc1
5. CN(Cc1ccco1)C(=O)c1cccc2c1CCN2C(=O)Nc1ccccc1
6. CN(Cc1ccccc1)C(=O)c1cccc2c1CCN2C(=O)Nc1ccccc1

stdout:
1: 19.35%; 2: 131.70%; 3: 120.10%; 4: 65.64%; 5: 117.40%; 6: 122.30%

// batch mode: one % Activity (max response, + ATP) value per listed entry
1. COc1ccc(NC(=O)c2cccc3c2CCN3C(=O)Nc2ccc(F)cc2)c(C)c1
2. O=C(O)c1cccc2c1CCN2C(=O)Nc1ccc(F)cc1
3. CCCCNC(=O)c1cccc2c1CCN2C(=O)Nc1ccccc1
4. COc1ccc(NC(=O)N2CCc3c(C(=O)N(C)Cc4ccco4)cccc32)cc1
5. O=C(NCCc1cccnc1)c1cccc2c1CCN2C(=O)Nc1ccc(F)cc1
6. O=C(NCc1ccco1)c1cccc2c1CCN2C(=O)Nc1ccc(F)cc1

stdout:
1: 119.00%; 2: 127.90%; 3: 123.10%; 4: 125.10%; 5: 119.50%; 6: 118.20%

// batch mode: one % Activity (max response, + ATP) value per listed entry
1. CCCNC(=O)c1cccc2c1CCN2C(=O)Nc1cccc(C)c1
2. COc1ccc(NC(=O)N2CCc3c(C(=O)NCc4ccncc4)cccc32)cc1
3. CCN1CCN(CCNC(=O)c2cccc3c2CCN3C(=O)Nc2ccc(C)cc2)CC1

stdout:
["115.10%", "125.10%", "125.50%"]

* * *

Biological target: FLuc-C-HiBiT (firefly luciferase) (Photinus pyralis, UniProt P08659, form not given/L550V)
Assay: SDR assay, FLuc-C-HiBiT
Settings: 10 nM FLuc-C-HiBiT; normalized activity; Log [Compound], M -7.35
Give SDR + 10 mM ATP for every item shown.

Guide cases for SDR + 10 mM ATP, answers given:
COc1ccc(-c2nc(-c3ccc(C(=O)O)cc3)no2)cc1 ... 33.6
Fc1ccc(-c2cn3cc(Cc4ccccc4)sc3n2)cc1 ... 9.9
CC(CNC(=O)C1CCN(C(=O)c2ncn3c2COC(c2ccccc2)C3)CC1)c1ccccc1 (centres unmarked) ... 7.5
CC1CCCN(c2ncnc3c2cnn3-c2ccccc2)C1 (centres unmarked) ... 9.5
O=C(O)c1cccc2c1CCN2C(=O)Nc1ccc(F)cc1 ... 110.1
O=C(O)CCSc1nnc(-c2ccc(Cl)cc2Cl)o1 ... 10.7
CNC(=O)c1cccc2c1CCN2C(=O)Nc1ccc(C)cc1 ... 14.4

Next up:
stdin: Name the reported SDR + 10 mM ATP value associated with the compound Cc1ccc(-n2ncc3c(N4CCCCCC4)ncnc32)cc1
stdout: 15.7

* * *

Give Efficacy for every item shown.
Biological target: PKA-N-HiBiT (Homo sapiens, UniProt P17612)
Assay: PKA peptide phosphorylation, Kinase-Glo Plus (KGP) assay, PKA-N-HiBiT
Format: biochemical
Parameters: containing amino acids Gly2-Phe351; His10 (N); made in house; host or cells: E. coli BL21(DE3)
Settings: KGP Rep 1
Give bare numbers.

Guide cases for Efficacy, answers given:
CCN1/C(=C/C(C)=O)Sc2ccc(OC)cc21 [TG003] ... 0.00
O=c1c(O)c(-c2ccc(O)c(O)c2)oc2cc(O)cc(O)c12 [Quercetin] ... -15.69

// batch mode: one Efficacy value per listed entry
1. Cn1c(=O)c2c(ncn2C)n(C)c1=O [Caffeine]
2. Cc1cc(O)c2c(c1)C(=O)c1cc(O)cc(O)c1C2=O [Emodin]

stdout:
[-14.65, -14.49]

* * *

Give FLuc Enzyme for every item shown.
Target: FLuc-C-HiBiT (firefly luciferase) (Photinus pyralis, UniProt P08659, form not given/L550V)
Experiment: Firefly luciferase (FLuc) enzymatic luminescence assay, FLuc-C-HiBiT
Assay type: biochemical
Set-up: key: % normalized; no enzyme control = 100% inhibition, DMSO = 0
Conditions: 10 nM FLuc-C-HiBiT; normalized activity; Log [Compound], M -7.35
Answers are plain numbers.

Guide cases for FLuc Enzyme, answers given:
Cc1ccc(-n2ncc3c(N4CCCCCC4)ncnc32)cc1 ... -13.2
Fc1ccc(-c2cn3cc(Cc4ccccc4)sc3n2)cc1 ... -3.9
O=C(O)c1cccc2c1CCN2C(=O)Nc1ccc(F)cc1 ... -88.9

// batch mode: one FLuc Enzyme value per listed entry
1. O=C(O)CCSc1nnc(-c2ccc(Cl)cc2Cl)o1
2. CC1CCCN(c2ncnc3c2cnn3-c2ccccc2)C1 (centres unmarked)
3. CNC(=O)c1cccc2c1CCN2C(=O)Nc1ccc(C)cc1
4. CC(CNC(=O)C1CCN(C(=O)c2ncn3c2COC(c2ccccc2)C3)CC1)c1ccccc1 (centres unmarked)
5. COc1ccc(-c2nc(-c3ccc(C(=O)O)cc3)no2)cc1

stdout:
[-2.8, 1.6, -1.2, 4.2, -27.2]
